target: UniProtKB Q70CQ3
Sequence (Q70CQ3 whole entry): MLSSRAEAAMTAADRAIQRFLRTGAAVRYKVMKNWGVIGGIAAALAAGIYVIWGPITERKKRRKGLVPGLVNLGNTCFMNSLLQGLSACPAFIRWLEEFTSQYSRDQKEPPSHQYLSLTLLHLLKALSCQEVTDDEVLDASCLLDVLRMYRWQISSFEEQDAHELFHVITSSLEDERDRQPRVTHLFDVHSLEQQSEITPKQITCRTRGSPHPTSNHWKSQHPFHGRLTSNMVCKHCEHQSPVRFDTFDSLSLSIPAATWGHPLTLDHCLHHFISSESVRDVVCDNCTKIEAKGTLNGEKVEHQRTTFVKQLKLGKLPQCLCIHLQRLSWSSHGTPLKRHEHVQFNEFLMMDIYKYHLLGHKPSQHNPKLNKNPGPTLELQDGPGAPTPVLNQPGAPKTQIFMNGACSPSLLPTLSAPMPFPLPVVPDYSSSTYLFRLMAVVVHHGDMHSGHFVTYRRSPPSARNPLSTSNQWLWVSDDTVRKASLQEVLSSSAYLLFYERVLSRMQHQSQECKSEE
pIC50: −log10 of the molar value.
Assign T whenever pIC50 does not fall below 7; assign F whenever it does.

The examples below pair each entry with its known result.
compound: CC(C)(C)NS(=O)(=O)c1ccc(NC(=O)[C@H](Cc2cccc(Cl)c2)NC(=O)C2CCCCC2)cc1 [Compound 19e]
cat: F
--
compound: CC(C)(C)NS(=O)(=O)c1ccc(NC(=O)[C@H](Cc2cccs2)NC(=O)C2CCCCC2)cc1 [Compound 19a]
cat: T
--
compound: Cc1ccc(C[C@H](NC(=O)c2ccccc2)C(=O)Nc2cccc3c(S(=O)(=O)NC(C)(C)C)cccc23)cc1
cat: F

Ask | Could you tell me if the measured pIC50 of CC(C)(C)NS(=O)(=O)c1ccc(NC(=O)[C@H](CC2CCCCC2)NC(=O)c2ccccc2F)cc1 [Compound 14f] reaches 7 or more?
Reply | F

Ask | Could you tell me if the measured pIC50 of CC(C)(C)NS(=O)(=O)c1ccc(NC(=O)[C@H](CC2CCCCC2)NC(=O)c2cccc(F)c2)cc1 [Compound 14g] reaches 7 or more?
Reply | T

Ask | Could you tell me if the measured pIC50 of `CC(C)(C)NS(=O)(=O)c1cccc2c(NC(=O)[C@H](Cc3ccccc3)NC(=O)c3ccccn3)cccc12` reaches 7 or more?
Reply | F

Ask | Could you tell me if the measured pIC50 of CC(C)(C)NS(=O)(=O)c1ccc(NC(=O)[C@H](CC2CCCCC2)NC(=O)c2ccccc2)cc1 [Compound 14a] reaches 7 or more?
Reply | F

Ask | Could you tell me if the measured pIC50 of `CC(C)(C)NS(=O)(=O)c1cccc2c(NC(=O)[C@H](Cc3ccccc3)NC(=O)c3nccs3)cccc12` reaches 7 or more?
Reply | F

Ask | Could you tell me if the measured pIC50 of `CC(C)(C)NS(=O)(=O)c1cccc2c(NC(=O)[C@H](Cc3ccccc3)NC(=O)c3ccc[nH]3)cccc12` reaches 7 or more?
Reply | F

Ask | Could you tell me if the measured pIC50 of `CC(C)(C)NS(=O)(=O)c1cccc2c(NC(=O)[C@H](CC3CC3)NC(=O)c3ccccc3)cccc12` reaches 7 or more?
Reply | F

Ask | Could you tell me if the measured pIC50 of CC(C)(C)NS(=O)(=O)c1ccc(NC(=O)[C@H](Cc2ccccc2)NC(=O)C2CCCCC2)cc1 [Compound 10b] reaches 7 or more?
Reply | T

Provenance of the data: patent US10968172B2
